Target: Serine/threonine-protein kinase PLK1 (Homo sapiens)
Sequence (P53350 whole entry): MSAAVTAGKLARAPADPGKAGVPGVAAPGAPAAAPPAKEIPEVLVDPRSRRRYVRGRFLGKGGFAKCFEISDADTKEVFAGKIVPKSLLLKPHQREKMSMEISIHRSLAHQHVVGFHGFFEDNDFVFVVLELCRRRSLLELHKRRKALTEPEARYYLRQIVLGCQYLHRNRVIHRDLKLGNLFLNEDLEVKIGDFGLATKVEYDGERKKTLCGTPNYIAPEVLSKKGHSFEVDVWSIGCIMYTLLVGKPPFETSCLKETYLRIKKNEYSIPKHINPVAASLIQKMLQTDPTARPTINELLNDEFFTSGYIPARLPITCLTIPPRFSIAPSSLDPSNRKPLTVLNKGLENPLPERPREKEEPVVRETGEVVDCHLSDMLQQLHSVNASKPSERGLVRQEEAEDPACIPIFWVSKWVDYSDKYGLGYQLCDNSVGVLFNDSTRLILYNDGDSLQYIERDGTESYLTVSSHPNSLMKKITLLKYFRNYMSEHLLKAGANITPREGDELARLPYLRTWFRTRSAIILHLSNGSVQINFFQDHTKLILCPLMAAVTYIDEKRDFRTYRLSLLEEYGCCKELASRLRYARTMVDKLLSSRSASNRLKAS
REPORTED_METRIC: IC50

In plain terms, COc1cc2ncn(-c3cc(OCC4CCCO4)c(C#N)s3)c2cc1OC (stereo unspecified) has a documented IC50 of > 10 µM

====

Target: Inhibitor of nuclear factor kappa-B kinase subunit epsilon (Homo sapiens, UniProt Q14164)
Sequence (Q14164 whole entry): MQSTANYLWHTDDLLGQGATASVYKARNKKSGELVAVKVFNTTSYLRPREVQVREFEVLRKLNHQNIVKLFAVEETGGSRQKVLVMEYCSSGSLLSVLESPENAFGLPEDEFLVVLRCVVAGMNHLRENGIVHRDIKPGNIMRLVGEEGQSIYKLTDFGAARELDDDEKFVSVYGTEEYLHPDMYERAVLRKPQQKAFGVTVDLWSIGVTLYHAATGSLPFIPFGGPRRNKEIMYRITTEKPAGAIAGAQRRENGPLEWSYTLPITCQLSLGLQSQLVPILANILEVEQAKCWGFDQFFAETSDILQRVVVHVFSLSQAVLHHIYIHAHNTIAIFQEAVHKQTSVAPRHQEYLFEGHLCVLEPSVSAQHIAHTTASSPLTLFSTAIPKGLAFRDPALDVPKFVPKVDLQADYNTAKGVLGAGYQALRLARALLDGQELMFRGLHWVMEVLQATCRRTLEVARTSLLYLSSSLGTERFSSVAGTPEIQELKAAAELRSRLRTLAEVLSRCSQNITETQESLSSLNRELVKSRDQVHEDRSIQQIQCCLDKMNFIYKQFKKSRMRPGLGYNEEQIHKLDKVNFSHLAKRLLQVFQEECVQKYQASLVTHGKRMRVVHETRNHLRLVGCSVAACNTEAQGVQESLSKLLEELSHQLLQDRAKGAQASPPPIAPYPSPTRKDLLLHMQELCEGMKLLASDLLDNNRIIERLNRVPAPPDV
Assay: IKK Kinase Inhibition Assay
Details: pH 7.4; 22 °C
pIC50: −log10 of the molar value.
REPORTED_METRIC: pIC50

Cc1ccc(COc2cc(-n3cnc4ccccc43)sc2C(N)=O)cc1 = 5.40
COc1cc2ncn(-c3cc(OCc4ccc(S(C)(=O)=O)cc4)c(C(N)=O)s3)c2cc1OC = < 4.80

Next item in the queue.
In plain terms, COc1cc2ncn(-c3cc(OCC4CCCO4)c(C(N)=O)s3)c2cc1OC (stereo not drawn) has a documented pIC50 of < 4.80
